This document collects pKi values reported for TRKB-wt (Homo sapiens (Human)).
pKi: −log10 of the molar value.
PARAMETER_MEASURED: pKi

INSERT INTO measurements (structure_smiles, parameter_measured, result) VALUES
  ('Cc1nc2c(s1)Cc1c(c(C#N)nn1C(=O)N(C)C)-c1cnc(N)c(c1)O[C@H](C)c1cc(F)ccc1-2', 'pKi', '6.30 to 7.30'),
  ('CSc1nn(CC2CC2)c2c1Cc1cn(C)nc1-c1ccc(F)cc1[C@@H](C)Oc1cc-2cnc1N', 'pKi', '≤ 6.30'),
  ('CCOC(=O)c1nn(CC2CC2)c2c1Oc1cccnc1-c1ccc(F)cc1[C@@H](C)Oc1cc-2cnc1N', 'pKi', '≤ 6.30'),
  ('Cc1cc2n(n1)-c1ccc(F)cc1[C@@H](C)Oc1cc(cnc1N)-c1c(nn(C)c1C#N)C2=O', 'pKi', '> 7.30'),
  ('C[C@H]1Oc2cc(cnc2N)-c2c(c(C(=O)N3CCC3)nn2CC2CC2)Cc2cn(C)nc2-c2ccc(F)cc21', 'pKi', '6.30 to 7.30'),
  ('C[C@H]1Oc2cc(cnc2N)-c2c(CC3CC3)nn(C(=O)N(C)C)c2Cc2cccnc2-c2ccc(F)cc21', 'pKi', '6.30 to 7.30');
